tested target: CLK2 (Homo sapiens, UniProt P49760)
Sequence (P49760 whole entry): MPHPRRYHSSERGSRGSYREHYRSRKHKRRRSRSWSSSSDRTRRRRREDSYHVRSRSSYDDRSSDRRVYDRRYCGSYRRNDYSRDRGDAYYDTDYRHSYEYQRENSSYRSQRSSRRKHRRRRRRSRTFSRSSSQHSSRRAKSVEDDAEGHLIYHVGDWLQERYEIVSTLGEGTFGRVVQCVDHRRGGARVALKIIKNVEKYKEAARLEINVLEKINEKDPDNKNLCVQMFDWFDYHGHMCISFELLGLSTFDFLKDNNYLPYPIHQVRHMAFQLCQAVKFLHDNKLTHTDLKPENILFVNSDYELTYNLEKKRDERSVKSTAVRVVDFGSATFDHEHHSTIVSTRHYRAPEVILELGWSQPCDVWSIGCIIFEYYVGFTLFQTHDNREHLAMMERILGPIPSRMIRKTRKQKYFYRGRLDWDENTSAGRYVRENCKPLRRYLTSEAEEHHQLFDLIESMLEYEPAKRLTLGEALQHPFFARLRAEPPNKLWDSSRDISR
assay explanation: Kinase profiling (radiometric filter-binding)
Assay type: biochemical
settings: CLK2, 1 µM inhibitor; read-out: Residual activity, %
Square brackets hold non-standard residues; d marks the D form. Peptide text beside a SMILES is read from it. * marks the point of attachment. X3 = O=C(CCCCCNCc1nc2c(sc3cc(Br)cnc32)c(=O)[nH]1)*
recorded metric: remaining activity at 1 µM (%)
Numbers only, in %.

compound: N=C(N)NCCC[C@@H](NC(=O)CCCCCNC(=O)Cn1cnc2c(I)c(I)c(I)c(I)c21)C(=O)N[C@H](CCCNC(=N)N)C(=O)N[C@H](CCCNC(=N)N)C(=O)N[C@H](CCCNC(=N)N)C(=O)N[C@H](CCCNC(=N)N)C(=O)N[C@H](CCCNC(=N)N)C(=O)N[C@H](CCCCN)C(N)=O
tested target: CLK2 (Homo sapiens, UniProt P49760)
recorded metric: remaining activity at 1 µM
unit abbreviation: %
reported result: -1
//
compound: N=C(N)NCCC[C@@H](NC(=O)CNC(=O)[C@@H](CCCNC(=N)N)NC(=O)[C@@H](CCCNC(=N)N)NC(=O)Cn1cc(CNCc2nc3c(sc4ccc(Br)cc43)c(=O)[nH]2)nn1)C(=O)N[C@H](CCCCN)C(N)=O
tested target: CLK2 (Homo sapiens, UniProt P49760)
recorded metric: remaining activity at 1 µM
unit abbreviation: %
reported result: 30
//
compound: N=C(N)NCCC[C@@H](NC(=O)CNC(=O)[C@@H](CCCNC(=N)N)NC(=O)[C@@H](CCCNC(=N)N)NC(=O)CCCCCCCNCc1nc2c(sc3cc(Br)cnc32)c(=O)[nH]1)C(=O)N[C@H](CCCCN)C(N)=O
tested target: CLK2 (Homo sapiens, UniProt P49760)
recorded metric: remaining activity at 1 µM
unit abbreviation: %
reported result: 97

Batch of 2 compounds: report remaining activity at 1 µM for each.
1. N=C(N)NCCC[C@@H](NC(=O)CCCCCNCc1nc2c(sc3cc(Br)cnc32)c(=O)[nH]1)C(=O)N[C@H](CCCNC(=N)N)C(=O)N[C@H](CCCNC(=N)N)C(=O)N[C@H](CCCNC(=N)N)C(=O)N[C@H](CCCNC(=N)N)C(=O)N[C@H](CCCNC(=N)N)C(=O)N[C@H](CCCCN)C(N)=O [ARC-3126, BPTP-Ahx-(D-Arg)6-D-Lys-NH2] (X3-[dR][dR][dR][dR][dR][dR][dK]-NH2)
2. N=C(N)NCCC[C@@H](NC(=O)CNC(=O)[C@@H](CCCNC(=N)N)NC(=O)[C@@H](CCCNC(=N)N)NC(=O)CCCCCCCNCc1nc2c(sc3ccc(Br)cc32)c(=O)[nH]1)C(=O)N[C@H](CCCCN)C(N)=O

Reply text:
1. 57
2. 24

----------
tested target: TSSK1 (Homo sapiens, UniProt Q9BXA7)
Sequence (Q9BXA7 1-367): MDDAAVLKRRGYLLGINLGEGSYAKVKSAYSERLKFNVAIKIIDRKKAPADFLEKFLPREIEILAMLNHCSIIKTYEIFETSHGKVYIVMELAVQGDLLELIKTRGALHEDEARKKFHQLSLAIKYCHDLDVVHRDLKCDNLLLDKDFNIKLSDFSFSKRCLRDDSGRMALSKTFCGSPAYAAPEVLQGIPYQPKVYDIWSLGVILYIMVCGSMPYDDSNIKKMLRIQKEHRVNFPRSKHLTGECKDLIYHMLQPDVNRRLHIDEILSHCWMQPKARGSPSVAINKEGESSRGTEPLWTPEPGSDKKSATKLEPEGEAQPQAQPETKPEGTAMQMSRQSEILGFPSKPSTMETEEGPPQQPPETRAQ
assay explanation: Kinase profiling (radiometric filter-binding)
Assay type: biochemical
settings: TSSK1, 1 µM inhibitor; read-out: Residual activity, %
Experimental: Kinase selectivity profiling was performed using the commercial service provided by the MRC PPU International Centre for Kinase Profiling (Dundee, UK) using a radiometric filter-binding assay. Kinases used for analysis were of human origin. The ATP concentration applied for inhibition measurements was at or below the ATP KM value of the particular PK. […] Residual activities were expressed as the percentage of retained activity compared to the control without inhibitor.
Square brackets hold non-standard residues; d marks the D form. Peptide text beside a SMILES is read from it. * marks the point of attachment. X3 = O=C(CCCCCNCc1nc2c(sc3cc(Br)cnc32)c(=O)[nH]1)*
Give measured remaining activity at 1 µM for each item. Keep answers brief.
Numbers only, in %.

Some solved cases for reference:
compound: N=C(N)NCCC[C@@H](NC(=O)CCCCCNCc1nc2c(sc3cc(Br)cnc32)c(=O)[nH]1)C(=O)N[C@H](CCCNC(=N)N)C(=O)N[C@H](CCCNC(=N)N)C(=O)N[C@H](CCCNC(=N)N)C(=O)N[C@H](CCCNC(=N)N)C(=O)N[C@H](CCCNC(=N)N)C(=O)N[C@H](CCCCN)C(N)=O [ARC-3126, BPTP-Ahx-(D-Arg)6-D-Lys-NH2] (X3-[dR][dR][dR][dR][dR][dR][dK]-NH2)
unit abbreviation: %
remaining activity at 1 µM: 97
//
compound: N=C(N)NCCC[C@@H](NC(=O)CNC(=O)[C@@H](CCCNC(=N)N)NC(=O)[C@@H](CCCNC(=N)N)NC(=O)CCCCCCCNCc1nc2c(sc3cc(Br)cnc32)c(=O)[nH]1)C(=O)N[C@H](CCCCN)C(N)=O [Compound 1, BPTP-Aoc-(D-Arg)2-Gly-D-Arg-D-Lys-NH2]
unit abbreviation: %
remaining activity at 1 µM: 98
//
compound: N=C(N)NCCC[C@@H](NC(=O)CNC(=O)[C@@H](CCCNC(=N)N)NC(=O)[C@@H](CCCNC(=N)N)NC(=O)Cn1cc(CNCc2nc3c(sc4ccc(Br)cc43)c(=O)[nH]2)nn1)C(=O)N[C@H](CCCCN)C(N)=O [Compound 3, BBTP-Amt-(D-Arg)2-Gly-D-Arg-D-Lys-NH2]
unit abbreviation: %
remaining activity at 1 µM: 100
//
compound: N=C(N)NCCC[C@@H](NC(=O)CNC(=O)[C@@H](CCCNC(=N)N)NC(=O)[C@@H](CCCNC(=N)N)NC(=O)CCCCCCCNCc1nc2c(sc3ccc(Br)cc32)c(=O)[nH]1)C(=O)N[C@H](CCCCN)C(N)=O [Compound 2, BBTP-Aoc-(D-Arg)2-Gly-D-Arg-D-Lys-NH2]
unit abbreviation: %
remaining activity at 1 µM: 108

# remaining activity at 1 µM of N=C(N)NCCC[C@@H](NC(=O)CCCCCNC(=O)Cn1cnc2c(I)c(I)c(I)c(I)c21)C(=O)N[C@H](CCCNC(=N)N)C(=O)N[C@H](CCCNC(=N)N)C(=O)N[C@H](CCCNC(=N)N)C(=O)N[C@H](CCCNC(=N)N)C(=O)N[C@H](CCCNC(=N)N)C(=O)N[C@H](CCCCN)C(N)=O [ARC-3125, TIBI-CH2-C(=O)-Ahx-(D-Arg)6-D-Lys-NH2] = 63

----------
tested target: ABL (Homo sapiens)
Sequence (P00519 whole entry): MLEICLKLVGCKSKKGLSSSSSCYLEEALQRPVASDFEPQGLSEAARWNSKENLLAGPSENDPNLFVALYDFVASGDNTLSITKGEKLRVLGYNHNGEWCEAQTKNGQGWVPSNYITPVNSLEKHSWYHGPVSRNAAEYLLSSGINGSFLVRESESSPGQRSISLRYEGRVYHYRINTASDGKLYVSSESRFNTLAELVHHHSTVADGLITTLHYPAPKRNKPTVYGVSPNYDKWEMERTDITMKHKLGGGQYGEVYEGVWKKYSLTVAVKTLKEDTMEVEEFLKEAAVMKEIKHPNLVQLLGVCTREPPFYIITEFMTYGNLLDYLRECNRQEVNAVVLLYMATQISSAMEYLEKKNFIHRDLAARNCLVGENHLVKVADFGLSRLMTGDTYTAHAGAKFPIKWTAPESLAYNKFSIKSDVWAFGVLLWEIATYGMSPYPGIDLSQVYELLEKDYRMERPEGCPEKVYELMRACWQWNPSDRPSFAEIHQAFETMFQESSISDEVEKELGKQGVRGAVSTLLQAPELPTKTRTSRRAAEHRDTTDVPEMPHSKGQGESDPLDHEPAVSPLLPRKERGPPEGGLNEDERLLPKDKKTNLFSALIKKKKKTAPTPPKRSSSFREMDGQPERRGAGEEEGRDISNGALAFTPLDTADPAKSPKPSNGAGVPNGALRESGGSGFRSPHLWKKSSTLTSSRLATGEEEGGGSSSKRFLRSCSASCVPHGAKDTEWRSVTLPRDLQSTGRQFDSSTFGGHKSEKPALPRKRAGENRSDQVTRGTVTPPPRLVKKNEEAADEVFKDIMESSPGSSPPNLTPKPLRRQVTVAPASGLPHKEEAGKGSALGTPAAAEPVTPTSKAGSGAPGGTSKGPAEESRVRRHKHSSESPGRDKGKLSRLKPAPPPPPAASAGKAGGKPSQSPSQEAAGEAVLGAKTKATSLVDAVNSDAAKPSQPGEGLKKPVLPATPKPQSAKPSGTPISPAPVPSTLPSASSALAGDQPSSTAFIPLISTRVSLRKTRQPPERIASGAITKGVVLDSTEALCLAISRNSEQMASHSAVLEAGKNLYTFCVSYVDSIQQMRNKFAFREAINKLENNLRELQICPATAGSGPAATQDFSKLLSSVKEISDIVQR
assay explanation: Kinase profiling (radiometric filter-binding)
Type: biochemical
settings: 1 µM inhibitor, read-out: Residual activity, %
Consider the following compounds; for each one, report its remaining activity at 1 µM.
One number for each entry, in %.

structure smiles string: N=C(N)NCCC[C@@H](NC(=O)CNC(=O)[C@@H](CCCNC(=N)N)NC(=O)[C@@H](CCCNC(=N)N)NC(=O)CCCCCCCNCc1nc2c(sc3cc(Br)cnc32)c(=O)[nH]1)C(=O)N[C@H](CCCCN)C(N)=O
unit abbreviation: %
remaining activity at 1 µM: 94
//
structure smiles string: N=C(N)NCCC[C@@H](NC(=O)CNC(=O)[C@@H](CCCNC(=N)N)NC(=O)[C@@H](CCCNC(=N)N)NC(=O)Cn1cc(CNCc2nc3c(sc4ccc(Br)cc43)c(=O)[nH]2)nn1)C(=O)N[C@H](CCCCN)C(N)=O
unit abbreviation: %
remaining activity at 1 µM: 91

Here's the next entry for you.
Entry `N=C(N)NCCC[C@@H](NC(=O)CNC(=O)[C@@H](CCCNC(=N)N)NC(=O)[C@@H](CCCNC(=N)N)NC(=O)CCCCCCCNCc1nc2c(sc3ccc(Br)cc32)c(=O)[nH]1)C(=O)N[C@H](CCCCN)C(N)=O` , remaining activity at 1 µM reported as 89

----------
tested target: SIK2 (Homo sapiens, UniProt Q9H0K1)
Sequence (Q9H0K1 whole entry): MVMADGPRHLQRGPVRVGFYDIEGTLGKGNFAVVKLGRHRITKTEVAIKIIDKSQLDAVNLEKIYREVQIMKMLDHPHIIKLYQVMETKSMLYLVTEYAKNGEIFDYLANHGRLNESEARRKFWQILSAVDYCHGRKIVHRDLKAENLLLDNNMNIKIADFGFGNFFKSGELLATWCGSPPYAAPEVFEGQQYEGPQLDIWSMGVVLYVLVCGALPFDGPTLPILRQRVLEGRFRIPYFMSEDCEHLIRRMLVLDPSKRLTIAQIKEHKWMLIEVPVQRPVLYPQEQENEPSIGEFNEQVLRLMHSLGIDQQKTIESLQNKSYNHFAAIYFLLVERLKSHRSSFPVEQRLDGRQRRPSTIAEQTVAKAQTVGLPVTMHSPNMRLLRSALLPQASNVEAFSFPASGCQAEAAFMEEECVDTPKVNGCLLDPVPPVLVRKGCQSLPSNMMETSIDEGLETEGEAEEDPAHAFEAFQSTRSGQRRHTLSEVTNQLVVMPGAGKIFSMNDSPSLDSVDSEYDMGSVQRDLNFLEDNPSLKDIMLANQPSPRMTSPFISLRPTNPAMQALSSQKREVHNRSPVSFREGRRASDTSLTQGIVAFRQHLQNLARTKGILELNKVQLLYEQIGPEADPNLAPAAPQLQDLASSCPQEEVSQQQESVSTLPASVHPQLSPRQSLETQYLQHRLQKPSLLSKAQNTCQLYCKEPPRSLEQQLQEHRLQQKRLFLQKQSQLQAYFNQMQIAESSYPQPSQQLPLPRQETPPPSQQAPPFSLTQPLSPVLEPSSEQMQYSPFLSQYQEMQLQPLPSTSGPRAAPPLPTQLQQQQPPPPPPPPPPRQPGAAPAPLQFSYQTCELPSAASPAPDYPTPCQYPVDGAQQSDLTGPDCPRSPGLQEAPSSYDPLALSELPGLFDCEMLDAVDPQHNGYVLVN
assay explanation: Kinase profiling (radiometric filter-binding)
Assay type: biochemical
settings: SIK2, 1 µM inhibitor; read-out: Residual activity, %
Square brackets hold non-standard residues; d marks the D form. Peptide text beside a SMILES is read from it. * marks the point of attachment. X3 = O=C(CCCCCNCc1nc2c(sc3cc(Br)cnc32)c(=O)[nH]1)*
Output y for records whose remaining activity at 1 µM is lower than 70%, n for records at or above 70%.

Completed entries (count: 3):
compound: N=C(N)NCCC[C@@H](NC(=O)CNC(=O)[C@@H](CCCNC(=N)N)NC(=O)[C@@H](CCCNC(=N)N)NC(=O)CCCCCCCNCc1nc2c(sc3cc(Br)cnc32)c(=O)[nH]1)C(=O)N[C@H](CCCCN)C(N)=O
discrete label: n
//
compound: N=C(N)NCCC[C@@H](NC(=O)CCCCCNCc1nc2c(sc3cc(Br)cnc32)c(=O)[nH]1)C(=O)N[C@H](CCCNC(=N)N)C(=O)N[C@H](CCCNC(=N)N)C(=O)N[C@H](CCCNC(=N)N)C(=O)N[C@H](CCCNC(=N)N)C(=O)N[C@H](CCCNC(=N)N)C(=O)N[C@H](CCCCN)C(N)=O [ARC-3126, BPTP-Ahx-(D-Arg)6-D-Lys-NH2] (X3-[dR][dR][dR][dR][dR][dR][dK]-NH2)
discrete label: n
//
compound: N=C(N)NCCC[C@@H](NC(=O)CCCCCNC(=O)Cn1cnc2c(I)c(I)c(I)c(I)c21)C(=O)N[C@H](CCCNC(=N)N)C(=O)N[C@H](CCCNC(=N)N)C(=O)N[C@H](CCCNC(=N)N)C(=O)N[C@H](CCCNC(=N)N)C(=O)N[C@H](CCCNC(=N)N)C(=O)N[C@H](CCCCN)C(N)=O
discrete label: y

Turning to the following compound.
Inquiry: Strictly below 70%: is that where remaining activity at 1 µM of `N=C(N)NCCC[C@@H](NC(=O)CNC(=O)[C@@H](CCCNC(=N)N)NC(=O)[C@@H](CCCNC(=N)N)NC(=O)CCCCCCCNCc1nc2c(sc3ccc(Br)cc32)c(=O)[nH]1)C(=O)N[C@H](CCCCN)C(N)=O` sits?
Reply text: n
